Target: CYP2B6 (Homo sapiens)
Sequence (P20813 whole entry): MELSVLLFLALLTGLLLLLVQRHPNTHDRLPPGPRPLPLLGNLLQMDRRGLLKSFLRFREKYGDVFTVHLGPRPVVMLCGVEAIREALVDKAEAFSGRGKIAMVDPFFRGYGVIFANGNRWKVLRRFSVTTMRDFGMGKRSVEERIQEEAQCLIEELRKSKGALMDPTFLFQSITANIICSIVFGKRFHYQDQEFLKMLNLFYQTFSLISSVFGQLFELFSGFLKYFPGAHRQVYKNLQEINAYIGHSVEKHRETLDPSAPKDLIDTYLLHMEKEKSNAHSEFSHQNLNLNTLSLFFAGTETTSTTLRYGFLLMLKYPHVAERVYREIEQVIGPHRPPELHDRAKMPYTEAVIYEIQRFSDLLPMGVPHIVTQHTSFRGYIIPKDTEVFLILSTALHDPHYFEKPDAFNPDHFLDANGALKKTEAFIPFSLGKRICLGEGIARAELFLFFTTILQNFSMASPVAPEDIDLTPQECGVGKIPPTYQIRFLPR
Assay: Activity of human recombinant CYP2B6 assessed as enzyme-mediated drug metabolism at 10 uM after 120 mins by LC-MS/MS analysis in presence of NADPH
Assay type: ADME
Settings: read-out: Compound recovery
measurement_label: remaining at 2 h, 10 µM (%)
Value expressed in %; do not type the unit.

CCOC(=O)N[C@@H]1CC[C@@H]2[C@@H](C1)C[C@H]1C(=O)O[C@H](C)[C@H]1[C@H]2/C=C/c1ccc(-c2cccc(F)c2)cn1 yielded remaining at 2 h, 10 µM of 97.7

----------
Test system: Liver microsome
Experiment: Drug metabolism in human liver microsomes assessed as (3R,3aS,4S,4aR,7R,8aR,9aR)-7-amino-4-((E)-2-(5-(3-fluorophenyl)pyridin-2-yl)vinyl)-3-methyldecahydronaphtho[2,3-c]furan-1(3H)-one formation after 120 mins by LC-MS/MS analysis
Format: ADME
Details: 2 h
measurement_label: Km (µM)
Value expressed in µM; do not type the unit.

CCOC(=O)N[C@@H]1CC[C@@H]2[C@@H](C1)C[C@H]1C(=O)O[C@H](C)[C@H]1[C@H]2/C=[14CH]/c1ccc(-c2cccc(F)c2)cn1 yielded Km of 23.5
